# Assay System: T1, recombinant his-tag human LAG3-ECD protein (human, UniProt P18627 23-450)
# T1 construct: extracellular domain; not shown: his tag
# T1 sequence (looked up): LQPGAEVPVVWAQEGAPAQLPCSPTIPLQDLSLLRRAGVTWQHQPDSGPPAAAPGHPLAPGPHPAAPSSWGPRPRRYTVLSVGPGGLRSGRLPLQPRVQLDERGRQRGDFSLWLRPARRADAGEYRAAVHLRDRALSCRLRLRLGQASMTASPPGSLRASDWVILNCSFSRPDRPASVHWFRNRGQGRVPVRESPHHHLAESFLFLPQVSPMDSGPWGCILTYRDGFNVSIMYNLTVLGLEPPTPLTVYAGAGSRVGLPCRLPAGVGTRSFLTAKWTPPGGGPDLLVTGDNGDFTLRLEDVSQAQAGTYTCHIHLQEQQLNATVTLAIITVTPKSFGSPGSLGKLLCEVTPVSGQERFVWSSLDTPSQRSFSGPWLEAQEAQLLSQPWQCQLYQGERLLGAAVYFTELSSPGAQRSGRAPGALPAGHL
# Assay Info: SPR Biacore T200, capture method as Example 2.7
Values of koff strictly less than 0.003 s⁻¹ map to TRUE, and values of at least 0.003 s⁻¹ map to FALSE.

- Binder: "147H 3811 (antibody, V domains shown) VH: EVQLVQSGAEVKKPGASVKVSCKASGYLFTNYWLGWIKQAPGQGLEWIGDIYPGGDYIVYNEKFKGKATLTADTSISTAYMELSRLRSDDTAVYYCARPNLPKDHWGQGTTVTVSS VL: DIVMTQSPLSLPVTPGEPASISCRSSKSLLHSNAITYLYWYLQKPGQSPQLLIYQVSNLATGVPDRFSGSGSGTDFTLKISRVEAEDVGVYYCGQYLELPWTFGGGTKVEIK"
  Label Class: "TRUE"
- Binder: "147H 3508 (antibody, V domains shown) VH: EVQLVQSGAEVKKPGASVKVSCKASGYTFTNYWLGWIKQAPGQGLEWIGDIYPGGDYINYNEKFKGKATLTADTSISTAYMELSRLRSDDTAVYYCARPNLPKDHWGQGTTVTVSS VL: DIVMTQSPLSLPVTPGEPASISCRSSKSLLHSNAITYLYWYLQKPGQSPQLLIYQVSNLASGVPDRFSGSGSGTDFTLKISRVEAEDVGVYYCGQNLELPWTFGGGTKVEIK"
  Label Class: "FALSE"
- Binder: "147H 3792 (antibody, V domains shown) VH: EVQLVQSGAEVKKPGASVKVSCKASGYTFTNYWLGWIKQAPGQGLEWIGDIYPGGDYIVYNEKFKGKATLTADTSISTAYMELSRLRSDDTAVYYCARPNLPGDYWGQGTTVTVSS VL: DIVMTQSPLSLPVTPGEPASISCRSSKSLLHSNAITYLYWYLQKPGQSPQLLIYQVSNLASGVPDRFSGSGSGTDFTLKISRVEAEDVGVYYCAQYLELPWTFGGGTKVEIK"
  Label Class: "TRUE"
- Binder: "147H 3663 (antibody, V domains shown) VH: EVQLVQSGAEVKKPGASVKVSCKASGYTFENYWLGWIKQAPGQGLEWIGDIYPGGDYIVYNEKFKGKATLTADTSISTAYMELSRLRSDDTAVYYCARPNLPGDYWGQGTTVTVSS VL: DIVMTQSPLSLPVTPGEPASISCRSSKSLLHSNAITYLYWYLQKPGQSPQLLIYQVSNLARGVPDRFSGSGSGTDFTLKISRVEAEDVGVYYCAQNLELPWTFGGGTKVEIK"
  Label Class: "FALSE"
- Binder: "147H 3421 (antibody, V domains shown) VH: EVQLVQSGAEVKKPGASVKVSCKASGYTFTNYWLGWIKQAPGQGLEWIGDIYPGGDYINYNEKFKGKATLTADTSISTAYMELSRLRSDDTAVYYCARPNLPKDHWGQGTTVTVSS VL: DIVMTQSPLSLPVTPGEPASISCRSSKSLLHSNAITYLYWYLQKPGQSPQLLIYQVSNLASGVPDRFSGSGSGTDFTLKISRVEAEDVGVYYCAQNLELPWTFGGGTKVEIK"
  Label Class: "FALSE"
- Binder: "147H 3790 (antibody, V domains shown) VH: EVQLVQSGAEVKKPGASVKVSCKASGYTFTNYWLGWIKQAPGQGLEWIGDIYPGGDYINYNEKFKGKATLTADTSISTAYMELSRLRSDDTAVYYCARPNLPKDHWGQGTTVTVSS VL: DIVMTQSPLSLPVTPGEPASISCRSSKSLLHSNAITYLYWYLQKPGQSPQLLIYQVSNLATGVPDRFSGSGSGTDFTLKISRVEAEDVGVYYCAQNLELPWTFGGGTKVEIK"
  Label Class: "FALSE"
- Binder: "147H 3808 (antibody, V domains shown) VH: EVQLVQSGAEVKKPGASVKVSCKASGYTFTNYWLGWIKQAPGQGLEWIGDIYPGGDYIVYNEKFKGKATLTADTSISTAYMELSRLRSDDTAVYYCARPNLPKDHWGQGTTVTVSS VL: DIVMTQSPLSLPVTPGEPASISCRSSKSLLHSNAITYLYWYLQKPGQSPQLLIYQVSNLASGVPDRFSGSGSGTDFTLKISRVEAEDVGVYYCGQYLELPWTFGGGTKVEIK"
  Label Class: "FALSE"
- Binder: "147H-13 (antibody, V domains shown, Common light chain; human gamma 1 / kappa constant domains; also called 147H4-13) VH: EVQLVQSGAEVKKPGASVKVSCKASGYTFTNYWLGWIKQAPGQGLEWIGDIYPGGDYINYNEKFKGKATLTADTSISTAYMELSRLRSDDTAVYYCARPNLPGDYWGQGTTVTVSS VL: DIVMTQSPLSLPVTPGEPASISCRSSKSLLHSNGITYLYWYLQKPGQSPQLLIYQVSNLASGVPDRFSGSGSGTDFTLKISRVEAEDVGVYYCAQNLELPWTFGGGTKVEIK"
  Label Class: "FALSE"
- Binder: "147H 3549 (antibody, V domains shown) VH: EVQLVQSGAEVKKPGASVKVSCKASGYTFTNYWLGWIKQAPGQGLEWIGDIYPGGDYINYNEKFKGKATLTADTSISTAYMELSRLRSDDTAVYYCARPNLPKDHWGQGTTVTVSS VL: DIVMTQSPLSLPVTPGEPASISCRSSKSLLHSNAITYLYWYLQKPGQSPQLLIYQVSNLASGVPDRFSGSGSGTDFTLKISRVEAEDVGVYYCAQYLEEPWTFGGGTKVEIK"
  Label Class: "FALSE"
- Binder: "147H 3809 (antibody, V domains shown) VH: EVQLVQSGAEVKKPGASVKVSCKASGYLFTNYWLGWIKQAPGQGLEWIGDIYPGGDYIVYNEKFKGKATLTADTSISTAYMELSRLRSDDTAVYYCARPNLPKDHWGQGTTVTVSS VL: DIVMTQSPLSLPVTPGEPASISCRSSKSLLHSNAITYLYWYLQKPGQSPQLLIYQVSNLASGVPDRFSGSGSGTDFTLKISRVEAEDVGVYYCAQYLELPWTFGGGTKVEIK"
  Label Class: "TRUE"
